# target.desc: T1, human Notch1 NRR_Avi_His recombinant protein (human, UniProt P46531 1434-1737)
# T1 construct: Secreted from CHO-PACE cells; cleaved at S1 into an N-terminal ~26 kDa half (LNR-A, B, C, HD1) and a C-terminal ~12 kDa half (HD2 and tag) that stay associated non-covalently; written here as one chain; also called recombinant human Notch1 NRR; human Notch1 NRR immunogen
# T1 sequence: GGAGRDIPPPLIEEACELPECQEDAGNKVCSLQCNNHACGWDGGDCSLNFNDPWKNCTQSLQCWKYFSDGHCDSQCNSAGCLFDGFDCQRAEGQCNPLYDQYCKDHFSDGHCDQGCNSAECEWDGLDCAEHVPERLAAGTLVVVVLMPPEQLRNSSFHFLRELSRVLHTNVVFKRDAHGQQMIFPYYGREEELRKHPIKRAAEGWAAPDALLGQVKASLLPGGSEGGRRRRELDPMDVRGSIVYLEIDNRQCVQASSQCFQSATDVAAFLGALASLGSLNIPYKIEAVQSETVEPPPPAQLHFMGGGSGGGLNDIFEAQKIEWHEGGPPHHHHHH
# protocol.details: competition ELISA on coated human Notch1 NRR_Avi_His; competitor 0.8 nM biotinylated rat 438
pEC50: −log10 of the molar value.
# cutoff 9 applies to pEC50; >= gives class 1, < gives class 0

Worked examples, 2 binders total:
humanized 438 VH1.1/VL1.5 (antibody, human IgG1, V domains shown) VH: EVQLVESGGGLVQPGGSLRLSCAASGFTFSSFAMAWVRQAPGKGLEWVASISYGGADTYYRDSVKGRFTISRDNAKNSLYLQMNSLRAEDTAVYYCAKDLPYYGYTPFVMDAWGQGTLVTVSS VL: DIQMTQSPSSLSASVGDRVTITCRASQRINTDLHWYQQKPGKAPKLLIKFASQTISGVPSRFSGSGSGTDFTLTISSLQPEDFATYYCQQSNSWPYTFGQGTKLEIK = class 0
rat 438-hIgG1 (antibody, V domains shown, also called r438-hIgG) VH: AVQLVESGGGLVQPGRSLKLSCTASGFTFSSFAMAWVRQAPTKGLEWVASISYGGADTYYRDSVKGRFTISRDNAKSSLYLQMDSLRSEDTSTYYCAKDLPYYGYTPFVMDAWGQGTSVTVSS VL: DIMLTQSPPTLSVTPGETISLSCRASQRINTDLHWYQQKPNESPRVLIKFASQTISGVPSRFSGSGSGTDFTLNINRVEPEDFSVYYCQQSNSWPYTFGAGTKLELK = class 0

Consider the additional binder presented here.
Query: I'd appreciate it if you could say whether humanized 438 VH1.1/VL1.9 (antibody, human IgG1, V domains shown) VH: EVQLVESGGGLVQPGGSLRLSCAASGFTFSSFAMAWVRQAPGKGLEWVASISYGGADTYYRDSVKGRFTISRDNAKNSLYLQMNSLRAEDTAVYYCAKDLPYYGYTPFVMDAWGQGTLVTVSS VL: DIMLTQSPSSLSASVGDRVTITCRASQRINTDLHWYQQKPGKAPKVLIKFASQTISGVPSRFSGSGSGTDFTLTISSLQPEDFATYYCQQSNSWPYTFGQGTKLEIK has pEC50 at least equal to 9.
Reply: class 1
